Attribution: the Human Domainome abundance scans (Beltran et al. 2025)

B1: Intersectin-2, residues 1129 to 1183; numbered along this chain, Q9NZM3 (parent)
chain: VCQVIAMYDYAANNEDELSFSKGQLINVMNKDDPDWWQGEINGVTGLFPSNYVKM

Variants of: B1
assay-notes: abundance fitness (aPCA) (normalised: wild type 0, dead -1); higher = more abundant; growth selection in yeast, the domain comes from the species named
test-context: Homo sapiens
observed-property: abundance fitness

Observe how each entry below is paired with its result.
M29R : -0.014
A6P : -0.585
N14S : 0.014
Y10A : -0.66
D16R : 0.001
A6G : -0.163
V44L : -0.033
Y52K : 0.082
K31R : -0.061
A11L : -0.064

input: Give its abundance fitness value. Item: V1A
output: -0.27
